experiment: S16 Schwann cell viability assay (CellTiter-Glo assay) (AID 624031); conditions: S16 rat Schwann cells viability, 24 h; series mostly up to 57.5 µM; note: nearly all actives have a fitted effect of over 70% in size
Inconclusive results are not listed. Calls of active or inactive are those of the source. Calls come from the whole dose curve; as a rule, active = well fitted cell-killing curve with a large enough effect; inconclusive = small, poorly fitted or top-dose-only effect, or effect the other way; inactive = flat fitted curve, though single readings scatter.
Pick one: true (1) for active, false (0) for inactive

COMPOUND	LABEL CLASS
O=C1c2ccccc2C(=O)C1c1ccc(Cl)cc1	false (0)
CCCCCCCCCCCCCCCCOCCOCCOCCOCCOCCOCCOCCOCCOCCOCCOCCOCCOCCOCCOCCOCCOCCOCCOCCOCCO	true (1)
CC(CC=O)CCCC(C)(C)O (stereo not given)	false (0)
CN1C(=O)C[C@@H](C(=O)N[C@@H](Cc2cnc[nH]2)C(=O)N2CCC[C@H]2C(N)=O)NC1=O	false (0)
CCCCC[C@H](O)/C=C/[C@H]1[C@H](O)CC(=O)[C@@H]1C/C=C\CCCC(=O)O	false (0)
CCCCCCCCCCCCCCCCCC[N+](C)(C)CCC[Si](OC)(OC)OC	false (0)
OCc1ccccc1	false (0)
COc1ccc(-c2noc(CC(=O)O)c2-c2ccc(OC)cc2)cc1	false (0)
Oc1cccc(O)c1O	false (0)
O=C(NCCNCC(O)COc1ccc(O)cc1)N1CCOCC1 (stereo not given)	false (0)

Each compound tested received a call. Report the one for Cn1c(=O)c2c(ncn2CCOC(=O)C(C)(C)Oc2ccc(Cl)cc2)n(C)c1=O .
false (0)

Each compound tested received a call. Report the one for Cc1cc(C(=O)NCCc2ccc(S(=O)(=O)NC(=O)NN3CCCCCC3)cc2)no1 .
false (0)

Each compound tested received a call. Report the one for c1ccc(-n2cnnn2)cc1 .
false (0)

Each compound tested received a call. Report the one for CC(C)c1ncc([N+](=O)[O-])n1C .
false (0)

---

test system: KB-3-1; test: Cytotoxic Profiling of Annotated Libraries Using Quantitative High-Throughput Screening (AID 1296008); conditions: Five cell lines viability, CellTiter-Glo ATP luminescence, 48-72 h; active compounds read low; note: % is set by controls: 0 for no effect and ±100 for the full control effect; nearly all actives have a fitted effect of over 60% in size
Results filed as inconclusive are left out.
RECORDED METRIC: max response (%)
Write down the numeric answer in % and omit the unit.

Would you please look over these solved cases?
MOLECULE	max response (%)
NC(=S)N=Nc1ccc(NN=C(N)N)cc1	-12.2
C[C@@H]1C/C=C/C=C/C=C/C=C/[C@H](O[C@@H]2O[C@H](C)[C@@H](O)[C@H](N)[C@@H]2O)C[C@@H]2O[C@](O)(C[C@@H](O)C[C@H]3O[C@@H]3/C=C/C(=O)O1)C[C@H](O)[C@H]2C(=O)O	3.94

Any idea what max response was measured for CCCCCCCCCCCCCCCC(=O)OC[C@@H](O)[C@H]1OC[C@H](O)[C@H]1O ?
-3.59

Any idea what max response was measured for NC(=O)C1c2ccccc2CCc2ccccc21 ?
5.54

Any idea what max response was measured for CN1CCCC(CN2c3ccccc3Sc3ccccc32)C1 (configuration not stated) ?
-10.2

Any idea what max response was measured for CC(C)[C@@H](C)/C=C/[C@@H](C)[C@H]1CC[C@H]2/C(=C/C=C3\C[C@@H](O)CC[C@@H]3C)CCC[C@]12C ?
8.4

Any idea what max response was measured for CCc1ncnc2cc(OC)c(OC)cc12 ?
-4.18

Any idea what max response was measured for NC(=O)c1cc[n+](CC2=C(C(=O)O)N3C(=O)[C@@H](NC(=O)C(c4ccccc4)S(=O)(=O)[O-])[C@H]3SC2)cc1 (some centres not stated) ?
1.04

Any idea what max response was measured for O=C1[O][Bi][O]c2ccccc21 ?
-7.6

Any idea what max response was measured for O=C(O)[C@H]1C(=CCO)O[C@H]2CC(=O)N12 ?
8.73

Any idea what max response was measured for CC(=O)OCC(=O)[C@@]1(O)CC[C@H]2[C@@H]3CCC4=CC(=O)CC[C@]4(C)C3=CC[C@@]21C ?
-7.13

Any idea what max response was measured for COc1c(O[C@@H]2O[C@H](CO)[C@@H](O)[C@H](O)[C@H]2O)cc2c(c1OC)-c1ccc(SC)c(=O)cc1[C@@H](NC(C)=O)CC2 ?
48.2

---

test system: CP185; experiment: qHTS profiling for inhibitors of Plasmodium falciparum proliferation (AID 504749); note: nearly all actives have a fitted effect of over 60% in size; details: P. falciparum in erythrocytes, SYBR Green DNA, 72 h; series mostly up to 28.7 µM
Records with an inconclusive call do not appear. Calls of active or inactive are those of the source. Calls follow the shape of the dose curve; as a rule, active = well fitted inhibition curve with a large enough effect; inconclusive = small, poorly fitted or top-dose-only effect; inactive = flat fitted curve, though single readings scatter.
Pick one: active, inactive

Here are 6 compounds together with their reported answers.
COMPOUND	ASSAY TARGET	LABEL CLASS
CSc1nc2cc(Oc3cccc(Cl)c3Cl)c(Cl)cc2[nH]1	CP185	active
Nc1ncnc2c1ncn2CCOCP(=O)(O)O	CP185	inactive
CC(C)(COP(=O)(O)OP(=O)(O)OC[C@H]1O[C@@H](n2cnc3c(N)ncnc32)[C@H](O)[C@@H]1OP(=O)(O)O)C(O)C(=O)NCCC(=O)NCCS (stereo not given in full)	CP185	inactive
O=C1c2ccccc2C(=O)C1c1ccc(F)cc1	CP185	inactive
CO/N=C(\C(=O)N[C@@H]1C(=O)N2C(C(=O)[O-])=C(C[n+]3cccc4c3CCC4)CS[C@H]12)c1csc(N)n1	CP185	inactive
O=C(O)Cc1cc(I)c(Oc2ccc(O)c(I)c2)c(I)c1	CP185	inactive

Each compound tested received a call. Report the one for ClC(Cl)Cl .
inactive

Each compound tested received a call. Report the one for CC(C)=CCC/C(C)=C/C=C/C(C)=C/C=C/C(C)=C/C=C/C=C(C)/C=C/C=C(C)/C=C/C=C(\C)CCC=C(C)C .
inactive

Each compound tested received a call. Report the one for O.O.O.O.O.O.O.O=S(=O)([O-])[O-].[Co+2] .
active

Each compound tested received a call. Report the one for CN[C@@H]1[C@H](O[C@H]2[C@H](O[C@H]3[C@H](O)[C@@H](O)[C@H](N=C(N)N)[C@@H](O)[C@@H]3N=C(N)N)O[C@@H](C)[C@]2(O)C=O)O[C@@H](CO)[C@H](O)[C@H]1O .
inactive

Each compound tested received a call. Report the one for Cc1cc(=O)c(C(=O)N[C@@H](C(=O)N[C@@H]2C(=O)N3C(C(=O)O)=C(CSc4nnnn4C)CS[C@H]23)c2ccc(O)cc2)c[nH]1 .
inactive

Each compound tested received a call. Report the one for NCCO/C=C/[C@H](N)C(=O)O .
inactive

Each compound tested received a call. Report the one for CCCc1nc(C(C)(C)O)c(C(=O)OCc2oc(=O)oc2C)n1Cc1ccc(-c2ccccc2-c2nn[nH]n2)cc1 .
inactive

Each compound tested received a call. Report the one for O=C1c2ccccc2C(=O)C1c1ccc(Cl)cc1 .
inactive

Each compound tested received a call. Report the one for C/C=C/C=C/C(=O)O .
inactive

Each compound tested received a call. Report the one for CCCCCCCCCCCCCCCCCC(=O)OC[C@@H](O)[C@H]1OC[C@H](O)[C@H]1O .
inactive

Each compound tested received a call. Report the one for Cc1cccc(C)c1NC(=O)NC1=CCCN1C .
inactive

Each compound tested received a call. Report the one for CCOC(=S)SSC(=S)OCC .
inactive

Each compound tested received a call. Report the one for CCCCCCCCCCCCCCCCCC[N+](C)(C)CCC[Si](OC)(OC)OC .
inactive

Each compound tested received a call. Report the one for CCN(CC)CCOc1ccccc1OC .
inactive

Each compound tested received a call. Report the one for CC(C)(C)c1ccc2c(S(=O)(=O)O)c(C(C)(C)C)ccc2c1 .
inactive

Each compound tested received a call. Report the one for C[C@@](Cc1ccc(O)c(O)c1)(NN)C(=O)O .
inactive

Each compound tested received a call. Report the one for CCCCC(CC)COS(=O)(=O)O (stereo not given) .
inactive

Each compound tested received a call. Report the one for CCN(CC)CCOc1ccc2nc(N(C)C)sc2c1 .
inactive

Each compound tested received a call. Report the one for CC(C)NCC(O)COc1ccccc1-n1cccc1 (stereo not given) .
inactive

---

The molecules listed here are annotated with their activity, negative = cell killing.
test: Drug repurposing screens with cells derived from glioblastoma tumor samples (AID 1345199); conditions: GBM patient neurospheres viability, ATP luminescence, 48 h; at 46.1 µM (top of the series); tumour line C; note: % is set by controls: 0 for no effect and ±100 for the full control effect; nearly all actives have a fitted effect of over 40% in size
Results filed as inconclusive are left out.
Write down the numeric answer in % and omit the unit.

MOLECULE	UNIT INFO	VALUE MEASURED
CCCCCCCCCCCCCC(=O)OCC(COP(=O)([O-])OCC[N+](C)(C)C)OC(=O)CCCCCCCCCCCCC (configuration not stated)	%	-13.4
NC(=S)NS(=O)(=O)c1ccc(N)cc1	%	-8.76
CO/N=C(\C(=O)N[C@@H]1C(=O)N2C(C(=O)O)=C(CSc3nc(C)c(CC(=O)O)s3)CS[C@H]12)c1csc(N)n1	%	-20.8
O=C(O)CCC/C=C\C[C@@H]1[C@@H](/C=C/[C@@H](O)COc2cccc(Cl)c2)[C@H](O)C[C@@H]1O	%	-22.5
O=C(O)/C=C/C(=O)Nc1ccc(S(=O)(=O)Nc2nccs2)cc1	%	-5.24

Any idea what activity, negative = cell killing was measured for O=C(/C=C/c1cccc(F)c1)NC1CC1 ?
-17.9

Any idea what activity, negative = cell killing was measured for COC(=O)CCC[N+](C)(C)C ?
-18.9
